Test: Viability qHTS for spleen associated tyrosine kinase inhibitor (SYKi) drug resistant MV4-11 cells (AID 1963824); also: nearly all actives have a fitted effect of over 35% in size
Conditions: SYKi-resistant MV4-11 viability, CellTiter-Glo, 72 h; series mostly up to 45 µM
Results filed as inconclusive are left out. Calls of active or inactive are those of the source. Calls follow the shape of the dose curve; as a rule, active = well fitted cell-killing curve with a large enough effect; inconclusive = small, poorly fitted or top-dose-only effect, or effect the other way; inactive = no such curve, though single readings can be large or run the other way.
Outcomes: active, inactive

compound: Cc1nc2ccccc2n1Cc1ccc(Cl)cc1
cat: active
--
compound: Cc1cc(CN)cc(C)c1NC(=O)c1ccc(-c2cc(Cl)ccc2Cl)o1
cat: active
--
compound: CC(C)[C@@H](C)/C=C/[C@@H](C)[C@H]1CC[C@H]2C3=CC=C4C[C@@H](O)CC[C@]4(C)C3=CC[C@]12C
cat: active
--
compound: Cc1ccc(C(=O)Nc2ccc(Oc3cc4cnn(C)c4cc3-c3cn[nH]c3)c(F)c2)c(=O)n1-c1ccc(F)cc1
cat: active
--
compound: CN1[C@@H]2CCC[C@H]1CC(NC(=O)c1nn(C)c3ccccc13)C2 (some centres not stated)
cat: inactive
--
compound: CCC(CC)C(=O)OC12C(OC(=O)C(C)C)C(C)C3(O)C(C=C(CO)CC4(O)C(=O)C(C)=CC43)C1C2(C)C (configuration not stated)
cat: active
--
compound: Cc1c(-c2ccnn2C)cc(C(=O)NCc2ccc(S(C)(=O)=O)cn2)c(=O)n1-c1cccc(C(F)(F)F)c1
cat: inactive
--
compound: Oc1ccccc1
cat: inactive
--
compound: COc1ccc(C2OCC3C(c4cc(OC)c5c(c4)OCO5)OCC23)cc1OC (configuration not stated)
cat: active
--
compound: O=C(O)/C=C(\CC(=O)O)C(=O)O
cat: inactive
--
compound: C[C@@H](N)C(=O)O
cat: inactive
--
compound: CC(C)(Sc1ccc(CCN(CCCCC2CCCCC2)C(=O)NC2CCCCC2)cc1)C(=O)O
cat: active
--
compound: CN(C)CCCN=c1c2ccccc2n(C)c2[nH]c(=O)n(C)c(=O)c12
cat: active
--
compound: CC1=CC(=O)CC(C)(C)C1CCC(C)OC1OC(COC(=O)c2cc(O)c(O)c(O)c2)C(O)C(O)C1O (configuration not stated)
cat: inactive
--
compound: C[C@]12C=CC(=O)C=C1CC[C@@H]1[C@@H]2C(=O)C[C@@]2(C)[C@H]1CC[C@]2(O)C(=O)CO
cat: inactive
--
compound: C[N+]1(C)[C@@H]2C[C@@H](OC(=O)C(O)(c3cccs3)c3cccs3)C[C@H]1[C@@H]1O[C@@H]12
cat: inactive
--
compound: CC1=C(C(=O)O)N2C(=O)[C@@H](NC(=O)[C@H](N)C3=CCC=CC3)[C@H]2SC1
cat: inactive
--
compound: CO[C@H]1[C@@H](O)[C@H](O[C@H]2CC[C@@]3(C)C(CCC4C3CC[C@]35COC6(COC(=O)C6)C3CCC45O)C2)O[C@@H](C)[C@@H]1OC1OC(CO)C(OC2OC(CO)C(O)C(O)C2O)C(O)C1O (some centres not stated)
cat: active
--
compound: CCOC(=O)[C@H](CCc1ccccc1)N[C@@H](C)C(=O)N1C2CCCCC2C[C@H]1C(=O)O (some centres not stated)
cat: active
--
compound: CNC(=O)c1ccccc1Nc1nc(Nc2ccc3c(c2OC)CCCC(N2CCN(CCO)CC2)C3)ncc1Cl (configuration not stated)
cat: active
--
compound: COCCc1ccccn1
cat: inactive
--
compound: CC(C)C(=O)c1c(C(C)C)nn2ccccc12
cat: inactive
--
compound: CC(=O)N1C[C@H](O)C[C@H]1C(=O)O
cat: inactive
--
compound: COc1ccccc1N1CCN(CC(O)COc2cc(OC)c(OC)c(OC)c2)CC1 (configuration not stated)
cat: inactive
--
compound: COC(=O)C1=CO[C@@H](O[C@@H]2O[C@H](CO)[C@@H](O)[C@H](O)[C@H]2O)[C@@H]2[C@@H](C)[C@@H](O)C[C@H]12
cat: inactive
--
compound: O=C(Cc1c(F)cccc1F)Nc1cc(OCc2ccc(Cl)cc2)ccn1
cat: active
--
compound: CC(C)=CCC/C(C)=C/Cc1ccc(O)c(C2OC(=O)c3cc(C(=O)O)cc(O)c32)c1O (configuration not stated)
cat: inactive
--
compound: COc1ccc2[nH]c(S(=O)Cc3ncc(C)c(OC)c3C)nc2c1 (configuration not stated)
cat: active
--
compound: CC1(C)CC[C@]2(C(=O)O[C@@H]3O[C@H](CO)[C@@H](O)[C@H](O)[C@H]3O)CC[C@]3(C)C(=CCC4[C@@]5(C)C[C@@H](O)[C@H](O)[C@](C)(C(=O)O)C5CC[C@]43C)C2C1O (some centres not stated)
cat: inactive
--
compound: O=C(O)c1ccccc1NCCc1ccccc1
cat: inactive
--
compound: C[N+](C)([O-])CCNc1ccc(NCC[N+](C)(C)[O-])c2c1C(=O)c1c(O)ccc(O)c1C2=O
cat: active
--
compound: N[C@@H](CC(=O)Nc1ccc(Oc2cc(F)c(F)cc2Br)cc1)C(=O)O
cat: inactive
--
compound: CCn1cc(C2=NOC(C(=O)Nc3c(C)n(C)n(-c4ccccc4)c3=O)C2)c(C)n1 (configuration not stated)
cat: inactive
--
compound: CC1CC2(O)OC(=O)C3=C2C(CCC3)[C@@]12C[C@@H](c1ccoc1)OC2=O (some centres not stated)
cat: inactive
--
compound: Cc1cccc2c1CC[C@H](CN1CCC(c3c(Cl)cccc3Cl)CC1)C[C@@H]2O
cat: active
--
compound: COC(=O)C1=C(C)NC(COC(N)=O)=C(C(=O)OC(C)C)C1c1cccc(Cl)c1Cl (configuration not stated)
cat: active
--
compound: COCCOc1nc(-c2ccc(Cl)c(Cl)c2)n(-c2ccc(NC(=O)CCl)cc2)n1
cat: active

###

Experiment: Quantitative highthroughput screen to assess conditional lethalithy of P12 Ichikawa cells grown in RPMI1640 with untreated serum (RPMI+s) (AID 1963881); also: nearly all actives have a fitted effect of over 35% in size
Conditions: ATP luminescence, 48 h; viability; series mostly up to 45.8 µM
Protocol: Assay Provider: Jason Cantor Ph.D. Department of Biochemistry University of Wisconsin-Madison, Madison, WI, USA Chemical screening studies have identified drug sensitivities across hundreds of cancer cell lines but most putative therapeutics fail to translate. […] Sets of conditional anticancer compounds spanned phases of clinical development and included non-oncology drugs were assessed. […] 6; Detection; Luminescence, Viewlux PerkinElmer. […]
Results filed as inconclusive are left out. The source made the active and inactive calls. Calls come from the whole dose curve; as a rule, active = well fitted cell-killing curve with a large enough effect; inconclusive = small, poorly fitted or top-dose-only effect; inactive = flat fitted curve, though single readings scatter.
Outcomes: active, inactive

compound: C[N+](C)(C)CC(=O)O
cat: inactive

compound: CC(=O)O[C@]1(C(C)=O)CC[C@H]2[C@@H]3C=C(C)C4=CC(=O)CC[C@]4(C)[C@@H]3CC[C@@]21C
cat: inactive

compound: Cc1cn2c(-c3cn[nH]c3)cnc2c(Nc2ccc(C(=O)N3CCNCC3)cc2F)n1
cat: active

compound: Cn1cc(CNCC2CCN(c3ncc(C(=O)NO)cn3)CC2)c2ccccc21
cat: active

compound: COc1ccc(-c2cc(=O)c3c(O)cc(O[C@@H]4O[C@H](CO[C@@H]5O[C@@H](C)[C@H](O)[C@@H](O)[C@@H]5O)[C@@H](O)[C@H](O)[C@@H]4O)cc3o2)cc1O
cat: inactive

compound: CN1CCC(=C2c3ccccc3CCc3sccc32)CC1
cat: inactive

compound: COc1c(N2CCNC(C)C2)c(F)cc2c(=O)c(C(=O)O)cn(C3CC3)c12 (centres undefined)
cat: inactive

compound: CCOC(=O)c1ccc(OC(=O)CCCCCN=C(N)N)cc1
cat: active

compound: COc1ccc(-c2nc3ccc(C4=NNC(=O)CC4C)cc3[nH]2)cc1 (centres undefined)
cat: inactive

###

Assay: Quantitative highthroughput screen to assess conditional lethalithy of P12 Ichikawa cells grown in RPMI1640 with untreated serum (RPMI+s) (AID 1963881); also: nearly all actives have a fitted effect of over 35% in size
Details: ATP luminescence, 48 h; viability; series mostly up to 45.8 µM
Experimental: Assay Provider: Jason Cantor Ph.D. Department of Biochemistry University of Wisconsin-Madison, Madison, WI, USA Chemical screening studies have identified drug sensitivities across hundreds of cancer cell lines but most putative therapeutics fail to translate. […] Sets of conditional anticancer compounds spanned phases of clinical development and included non-oncology drugs were assessed. […] 6; Detection; Luminescence, Viewlux PerkinElmer. […]
Records with an inconclusive call do not appear. The source made the active and inactive calls. Calls come from the whole dose curve; as a rule, active = well fitted cell-killing curve with a large enough effect; inconclusive = small, poorly fitted or top-dose-only effect; inactive = flat fitted curve, though single readings scatter.
Outcomes: active, inactive

molecule: C[C@@]12O[C@@H](C[C@]1(O)CO)n1c3ccccc3c3c4c(c5c6ccccc6n2c5c31)CNC4=O
cat: active
--
molecule: CN[C@@H](C)[C@H]1[C@H](O)C[C@@]2(C)[C@@H]3CC[C@H]4C(C)(C)[C@@H](NC)CC[C@@]45C[C@@]35CC[C@]12C
cat: inactive
--
molecule: CC(C)(F)C[C@H](N[C@@H](c1ccc(-c2ccc(S(C)(=O)=O)cc2)cc1)C(F)(F)F)C(=O)NC1(C#N)CC1
cat: inactive
--
molecule: O=C(N[C@H](CO)[C@H](O)c1ccc([N+](=O)[O-])cc1)C(Cl)Cl
cat: active
--
molecule: CCc1nc(N)nc(N)c1-c1ccc(Cl)cc1
cat: active
--
molecule: OCCNC1CCCc2c1[nH]c1ccc(-c3ccccc3)cc21 (centres undefined)
cat: active
--
molecule: C[C@@H]1CN(Cc2ccc(F)cc2)[C@@H](C)CN1C(=O)c1cc2c(C(=O)C(=O)N(C)C)cn(C)c2cc1Cl
cat: inactive
--
molecule: Cc1csc(NC(=O)c2sc3nc4c(c(C(F)(F)F)c3c2N)CCC4)n1
cat: inactive
--
molecule: COc1c(Cl)cc2c([nH]c3cnccc32)c1NC(=O)c1cccnc1C
cat: inactive
